- TGT: Mu-type opioid receptor (Homo sapiens, UniProt P35372)
- Sequence (P35372 whole entry): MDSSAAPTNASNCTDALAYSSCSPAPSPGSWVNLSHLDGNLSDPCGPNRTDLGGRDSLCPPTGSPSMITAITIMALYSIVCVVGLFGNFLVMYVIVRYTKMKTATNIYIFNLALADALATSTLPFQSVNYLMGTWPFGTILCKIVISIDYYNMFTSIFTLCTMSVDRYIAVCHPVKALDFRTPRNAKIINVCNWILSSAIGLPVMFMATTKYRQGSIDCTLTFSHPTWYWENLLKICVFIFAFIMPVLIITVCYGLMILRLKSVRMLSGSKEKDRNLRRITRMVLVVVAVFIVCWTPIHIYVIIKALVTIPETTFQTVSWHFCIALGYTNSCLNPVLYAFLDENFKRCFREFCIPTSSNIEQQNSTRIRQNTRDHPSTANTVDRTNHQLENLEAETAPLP
- ASSAY REMARKS: GPCRScan assay: inhibition of MOR
- Set-up: radioligand conc. used [nm] 1.0 – 2.0, parental cells stable HEK
MEASUREMENT LABEL: pKi
# pKi = -log10(concentration in molar units)

**Query** Need pKi of CCCCN(CCCC)C(=O)CN1C[C@@H](c2cc(OC)c3c(c2)OCO3)[C@H](C(=O)O)[C@H]1CC(C)(C)CCC [A-545] , thanks.
**Result** 5.56

====

- TGT: UniProt P41595
- Sequence (P41595 whole entry): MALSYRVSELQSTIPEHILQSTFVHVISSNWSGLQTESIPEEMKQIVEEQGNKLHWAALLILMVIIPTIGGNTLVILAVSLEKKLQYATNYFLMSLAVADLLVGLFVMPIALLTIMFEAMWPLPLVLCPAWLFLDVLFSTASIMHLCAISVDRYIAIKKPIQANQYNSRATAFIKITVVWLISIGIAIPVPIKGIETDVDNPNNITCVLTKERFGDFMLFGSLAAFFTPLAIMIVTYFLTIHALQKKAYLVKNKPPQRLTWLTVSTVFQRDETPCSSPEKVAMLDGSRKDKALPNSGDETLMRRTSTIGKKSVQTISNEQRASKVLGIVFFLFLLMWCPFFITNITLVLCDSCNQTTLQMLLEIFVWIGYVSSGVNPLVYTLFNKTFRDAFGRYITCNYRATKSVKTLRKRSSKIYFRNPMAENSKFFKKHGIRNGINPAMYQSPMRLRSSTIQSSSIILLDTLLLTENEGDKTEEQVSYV
- ASSAY REMARKS: GPCRScan assay: inhibition of 5-HT2B
- Set-up: radioligand conc. used [nm] 1.0 – 2.0, parental cells stable HEK
- RUN CONDITIONS: read-out: Ki
MEASUREMENT LABEL: pKi
Bear in mind: pKi is minus log10 of a mol/L concentration; give just that figure.

**Query** What value of pKi has been reported for the following compound? CCCCN(CCCC)C(=O)CN1C[C@@H](c2cc(OC)c3c(c2)OCO3)[C@H](C(=O)O)[C@H]1CC(C)(C)CCC
**Result** 5.19
